- method_notes: Monitoring of the plasma concentration of the main oligosaccharides of a VLMWH in human volunteers (plasma filtration + anion-exchange HPLC)
- Format: in vivo
- stated_conditions: 6 h after administration of VLMWH (2500 Da) 1.4 mg/kg
Known plasma concentration of a selection of compounds

compound	unit_of_measurement	plasma concentration
CC(=O)NC1C(OC2C(C(=O)O)OC(OC3C(COS(=O)(=O)O)OC(OC4C(C(=O)O)OC(OC5C(COS(=O)(=O)O)OC(O)C(NS(=O)(=O)O)C5O)C(OS(=O)(=O)O)C4O)C(NS(=O)(=O)O)C3OS(=O)(=O)O)C(O)C2O)OC(COS(=O)(=O)O)C(OC2OC(C(=O)O)=CC(O)C2O)C1O (centres unmarked) [ΔIIaIIsIs]	nM	80
O=C(O)C1=CC(O)C(OS(=O)(=O)O)C(OC2C(COS(=O)(=O)O)OC(OC3C(C(=O)O)OC(OC4C(COS(=O)(=O)O)OC(OC5C(C(=O)O)OC(OC6C(COS(=O)(=O)O)OC(O)C(NS(=O)(=O)O)C6O)C(OS(=O)(=O)O)C5O)C(NS(=O)(=O)O)C4O)C(OS(=O)(=O)O)C3O)C(NS(=O)(=O)O)C2O)O1 (centres unmarked) [ΔIsIsIs]	nM	10
O=C(O)C1=CC(O)C(OS(=O)(=O)O)C(OC2C(COS(=O)(=O)O)OC(O)C(NS(=O)(=O)O)C2O)O1 (centres unmarked) [ΔIs]	nM	30
O=C(O)C1=CC(O)C(OS(=O)(=O)O)C(OC2C(COS(=O)(=O)O)OC(OC3C(C(=O)O)OC(OC4C(COS(=O)(=O)O)OC(O)C(NS(=O)(=O)O)C4O)C(OS(=O)(=O)O)C3O)C(NS(=O)(=O)O)C2O)O1 (centres unmarked) [ΔIsIs]	nM	40
CC(=O)NC1C(OC2C(C(=O)O)OC(OC3C(COS(=O)(=O)O)OC(OC4C(C(=O)O)OC(OC5C(COS(=O)(=O)O)OC(OC6C(C(=O)O)OC(OC7C(COS(=O)(=O)O)OC(O)C(NS(=O)(=O)O)C7O)C(OS(=O)(=O)O)C6O)C(NS(=O)(=O)O)C5O)C(OS(=O)(=O)O)C4O)C(NS(=O)(=O)O)C3OS(=O)(=O)O)C(O)C2O)OC(COS(=O)(=O)O)C(OC2OC(C(=O)O)=CC(O)C2O)C1O (centres unmarked) [ΔIIaIIsIsIs]	nM	20

* * *

Entries annotated with measured plasma concentration
- method_notes: Monitoring of the plasma concentration of the main oligosaccharides of a VLMWH in human volunteers (plasma filtration + anion-exchange HPLC)
- Type: in vivo
- stated_conditions: 9 h after administration of VLMWH (2500 Da) 1.4 mg/kg
value_kind: plasma concentration

molecule	experimental_value
O=C(O)C1=CC(O)C(OS(=O)(=O)O)C(OC2C(COS(=O)(=O)O)OC(OC3C(C(=O)O)OC(OC4C(COS(=O)(=O)O)OC(O)C(NS(=O)(=O)O)C4O)C(OS(=O)(=O)O)C3O)C(NS(=O)(=O)O)C2O)O1 (centres unmarked) [ΔIsIs]	10 nM
CC(=O)NC1C(OC2C(C(=O)O)OC(OC3C(COS(=O)(=O)O)OC(OC4C(C(=O)O)OC(OC5C(COS(=O)(=O)O)OC(OC6C(C(=O)O)OC(OC7C(COS(=O)(=O)O)OC(O)C(NS(=O)(=O)O)C7O)C(OS(=O)(=O)O)C6O)C(NS(=O)(=O)O)C5O)C(OS(=O)(=O)O)C4O)C(NS(=O)(=O)O)C3OS(=O)(=O)O)C(O)C2O)OC(COS(=O)(=O)O)C(OC2OC(C(=O)O)=CC(O)C2O)C1O (centres unmarked) [ΔIIaIIsIsIs]	20 nM
O=C(O)C1=CC(O)C(OS(=O)(=O)O)C(OC2C(COS(=O)(=O)O)OC(O)C(NS(=O)(=O)O)C2O)O1 (centres unmarked) [ΔIs]	10 nM
O=C(O)C1=CC(O)C(OS(=O)(=O)O)C(OC2C(COS(=O)(=O)O)OC(OC3C(C(=O)O)OC(OC4C(COS(=O)(=O)O)OC(OC5C(C(=O)O)OC(OC6C(COS(=O)(=O)O)OC(O)C(NS(=O)(=O)O)C6O)C(OS(=O)(=O)O)C5O)C(NS(=O)(=O)O)C4O)C(OS(=O)(=O)O)C3O)C(NS(=O)(=O)O)C2O)O1 (centres unmarked) [ΔIsIsIs]	0 nM
CC(=O)NC1C(OC2C(C(=O)O)OC(OC3C(COS(=O)(=O)O)OC(OC4C(C(=O)O)OC(OC5C(COS(=O)(=O)O)OC(O)C(NS(=O)(=O)O)C5O)C(OS(=O)(=O)O)C4O)C(NS(=O)(=O)O)C3OS(=O)(=O)O)C(O)C2O)OC(COS(=O)(=O)O)C(OC2OC(C(=O)O)=CC(O)C2O)C1O (centres unmarked) [ΔIIaIIsIs]	70 nM
